biological target: NKGD2-ULBP6 (Homo sapiens); assay: Inhibition of NKG2D (unknown origin)/ULBP6 (unknown origin) protein-protein interaction by cell-based TR-FRET assay
Sequence (P26718 whole entry): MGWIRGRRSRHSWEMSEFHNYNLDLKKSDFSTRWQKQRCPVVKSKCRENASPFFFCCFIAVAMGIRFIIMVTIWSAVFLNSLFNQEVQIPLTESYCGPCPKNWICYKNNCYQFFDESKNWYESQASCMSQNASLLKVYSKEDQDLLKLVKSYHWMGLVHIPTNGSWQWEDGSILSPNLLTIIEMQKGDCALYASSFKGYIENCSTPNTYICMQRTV
Sequence (Q5VY80 whole entry, further chain): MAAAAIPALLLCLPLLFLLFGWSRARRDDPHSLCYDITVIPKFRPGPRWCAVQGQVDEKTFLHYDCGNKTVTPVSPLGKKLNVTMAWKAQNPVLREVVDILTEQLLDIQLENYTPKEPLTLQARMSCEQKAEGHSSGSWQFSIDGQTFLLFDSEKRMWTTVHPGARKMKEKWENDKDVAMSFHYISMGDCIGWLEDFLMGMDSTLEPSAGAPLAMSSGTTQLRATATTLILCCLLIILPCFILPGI
Let's look at some molecules and their measured IC50.
Give the value, in units of µM, as a plain number.

                                   molecule  unit_info  recorded_number
0  O=C(NC(C(=O)N1CCCC1)c1cccc(C(F)(F)F)c1)c1ccccc1-c1ccc(C(F)(F)F)cc1 (racemic)         µM              5.1

Switching to the query record.
Which IC50 value belongs to O=C(N[C@H](C(=O)N1C[C@@H]2[C@H](CO)[C@@H]2C1)c1cccc(C(F)(F)F)c1)c1ccccc1-c1ccc(C(F)(F)F)cc1 ?
3.1

Attribution: ChEMBL document CHEMBL5390216
